System: T-47D breast
Procedure Text: NCI tumour cell line growth inhibition, 48 h
Where a SMILES comes first, the peptide text is derived from it. The star is where a group is joined. Cbz = O=C(OCc1ccccc1)*
Collected TGI values appear next to each entry.

Example cases with answers are listed next.
1. CCCCC(OC(=O)c1ccc(N)cc1)C(=O)Nc1nc(CC(=O)OCC)cs1 (centres undefined) :: > 100 µM
2. CCOC(=O)C(NC(=O)c1ccccc1)(c1ccc(S(=O)(=O)Nc2onc(C)c2C)cc1)C(F)(F)F (centres undefined) :: > 100 µM
3. NNC(=O)CC(=O)Nc1ccc(S(=O)(=O)c2ccc(NC(=O)CC(=O)NN)cc2)cc1 :: > 100 µM
4. CSc1nc(-c2ccccc2)nc(C(C#N)C#N)n1 :: > 100 µM
5. COC(=O)C(CC(C)C)NC(=O)C(CCCN=C(N)N)NC(=O)OCc1ccccc1 (stereo not drawn) (Cbz-Arg-Leu-OMe; configuration not given here) :: > 100 µM

Here is the next item to consider.
Ask: // query TGI value for entry `COc1ccc(CNCCCN2C(=O)c3ccc4c5c(ccc(c35)C2=O)C(=O)N(CCCNCc2ccc(OC)c(OC)c2OC)C4=O)c(OC)c1OC`
Reply: 0.213 µM
